system: Jurkat HIV-luciferase clones; test: Jurkat latency reversal assay; format: cell-based; details: Homo sapiens, 48 h; Jurkat latency reversal assay potency; read-out: Jurkat pEC50 (converted)
endpoint: EC50

Bench note: what EC50 did C[C@@H]1CN(CC(=O)N2CC(C)(C)c3[nH]c(=O)c(Cc4ccc(F)cc4)cc32)[C@@H](CN2CCO[C@H](COc3ccc(C(C)(C)c4cccc(C(C)(C)c5ccc(OC[C@@H]6CN(C[C@H]7CN[C@H](C)CN7CC(=O)N7CC(C)(C)c8[nH]c(=O)c(Cc9ccc(F)cc9)cc87)CCO6)cc5)c4)cc3)C2)CN1 (stereo in doubt) show?
12.6 to 63.1 nM

Also check `C[C@@H]1CN(CC(=O)N2CC(C)(C)c3[nH]c(=O)c(Cc4ccc(F)cc4)cc32)[C@@H](CN2CCC(CN(C)C(=O)Cc3ccc(CC(=O)N(C)CC4CCN(C[C@H]5CN[C@H](C)CN5CC(=O)N5CC(C)(C)c6[nH]c(=O)c(Cc7ccc(F)cc7)cc65)CC4)cc3)CC2)CN1`
63.1 to 316 nM

Also check `C[C@@H]1CN(CC(=O)N2CC(C)(C)c3[nH]c(=O)c(Cc4cc(F)c(F)c(F)c4F)cc32)[C@@H](CN2CCO[C@H](C(=O)NCc3ccc(CNC(=O)[C@@H]4CN(C[C@H]5CN[C@H](C)CN5CC(=O)N5CC(C)(C)c6[nH]c(=O)c(Cc7cc(F)c(F)c(F)c7F)cc65)CCO4)cc3)C2)CN1`
0.49 to 12.6 nM
